# System: gabapentin binding site
# Protocol description: Gabapentin binding assay: displacement of [3H]-gabapentin from its binding site
# Test settings: compound 10 μM in the test batch; [3H]-gabapentin 10 nM; homogenate 0.6 mg/ml protein; 40 minutes at room temperature
Consider the following compounds; for each one, report its Gabapentin [%] inhibition.
Unit % implied. Number only.

Item: CN1CCN(CC2CCCCCCC2(O)Cc2cccc(F)c2)CC1 (stereo not drawn) | Gabapentin [%] inhibition: 42

For reference, reported Gabapentin [%] inhibition for CN1CCN(CC2CCCCCCCCCCC2(O)Cc2cccc(F)c2)CC1 (stereo not drawn) stands at 45

The reported value for CN1CCN(CC2CCCCCC2(O)Cc2c(F)cccc2Cl)CC1 (stereo not drawn) in terms of Gabapentin [%] inhibition is 82

Per the record, C=CC1(O)CCCCCCCCCCC1CN1CCN(C)CC1 (stereo not drawn) has Gabapentin [%] inhibition of 49

Just so you know, measured Gabapentin [%] inhibition for CN1CCN(CC2CCCCCCC2(O)Cc2c(F)cccc2Cl)CC1 (stereo not drawn) came out at 60

For CN1CCN(CC2CCCCCCC2(O)Cc2ccc(F)cc2)CC1 (stereo not drawn) the compound record lists Gabapentin [%] inhibition as 39
